Values compiled from the supplement of paper PMC10065799.

System: c-Abl (mouse);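 further: 11-residue human phosphosite peptides and single-mutation variants displayed on the E. coli surface, counted by deep sequencing, each peptide's frequency after selection divided by its frequency in the unselected input library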;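 further: frequency after pTyr selection over input frequency; kinase dosed for 20-30% of maximal phosphorylation in three min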
Test: phosphorylation enrichment, bacterial display (enrichment ratio); higher = better substrate or ligand; peptides without Tyr show the background
Readout name: phosphorylation enrichment
Please give the numeric answer without any surrounding text.

Observe how each entry below is paired with its result.
What does the record list as phosphorylation enrichment for DYNPNYCFAGK [ALK_Y1096] ? 0.812

Report phosphorylation enrichment for EQMASYFGHSV [ITGA2B_Y319] please. 0.573

Need phosphorylation enrichment of SFHCSYSEIKD [DCLRE1C_Y322_S320C] , thanks. 0.873

Any idea what its phosphorylation enrichment is? The sequence is CTTIHYNSMCN [TP53_Y234_Y236S] 0.544

Need phosphorylation enrichment of AKNKDYMSIIR [GNE_Y197] , thanks. 0.676

More entries:
Find the recorded phosphorylation enrichment belonging to IPKTWYSAEQF [CD207_Y217] and report it. 0.526

Given the sequence HDRNTYEKYLG [TF_Y666] , what is its reported phosphorylation enrichment? 0.731

Which phosphorylation enrichment value is on record for SHNELYYEEAE [VANGL1_Y344] ? 0.896

Query: phosphorylation enrichment; subject: STFVPYEIKVQ [L1CAM_Y784] 0.678

Looking for the measured phosphorylation enrichment of PCLLRYLQLDF [ASB10_Y457_R453C] , can you help? 1.12

Can you share its phosphorylation enrichment? I mean this sequence: PQGVGYPQQQQ [EP300_Y2219_P2221Q] 0.599

// phosphorylation enrichment lookup, key: SSNTEYLSASD [INSR_Y999_P997T] 0.556

Record request: phosphorylation enrichment value, item LAARYYNWVCF [FLT4_Y1231_S1235C] 0.977

# phosphorylation enrichment lookup, item QKNVSYVSRVS [TASOR_Y1043_T1046R] 0.547

So what's the measured phosphorylation enrichment for this one? VGTKRYRAPEV [ACVRL1_Y375_M376R] 0.499

What measured phosphorylation enrichment goes with SLKAFYGEDAK [ALDH3A1_Y272_E270A] ? 0.562

Returns the measured phosphorylation enrichment for the input sequence. Input: KDYETYQSFQN [CTNND2_Y1157_P1159S] 0.875

Which value of phosphorylation enrichment has been reported for GRQGIYTENKR [GPR143_Y231_E235K] in the records? 0.46

Look up phosphorylation enrichment: FDRREYSRFEK [ITGB7_Y758_YF] 0.596

Return reported phosphorylation enrichment; argument: GDFLSYREFHL [ERBIN_Y1107_S1112L_YF] 0.805

Param item = PDDPSYSLVDD [PSTPIP2_Y323_N322S] ; retrieve measured phosphorylation enrichment. 1.03

Look up phosphorylation enrichment: KSIDEYLKLVG [RASAL2_Y381_E379D] 0.449

So what's the measured phosphorylation enrichment for this one? MSSLPYMKMIF [SLC4A11_Y853] 0.732

Consider the sequence VEYAKYGSLRG [RET_Y809] and give its measured phosphorylation enrichment. 0.824

Need phosphorylation enrichment of PSSRDYKHNIK [PIGN_Y227] , thanks. 0.471

Need phosphorylation enrichment, item ECKEAYHEGEC [PRKN_Y372] 0.761

Report phosphorylation enrichment for SLLLSYYLIKW [NUP160_Y773_P768S] please. 0.882
